molecular target: T1, MiniBR3 peptide (human, C-terminal amide; disulfide between cysteines 24 and 35 and a second disulfide (BR3 numbering)); test: phage competition ELISA
T1 construct: synthetic
T1 sequence (peptide, as listed by the source): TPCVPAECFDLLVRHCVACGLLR
Property: IC50; scope: individual binders
# value in nM; strip the unit string

Worked examples, 3 binders total:
{"columns": ["BINDER", "METRIC NAME", "RESULT VALUE"],
 "data": [
  ["V3-11 Fab (Fab, V domains shown, soluble Fab in SPR) VH: EVQLVESGGGLVQPGGSLRLSCAASGFTISSNSIHWVRQAPGKGLEWVAWITPSDGNTDYADSVKGRFTISADTSKNTAYLQMNSLRAEDTAVYYCARRVCYNNLGVCAGAMDYWGQGTLVTVSS VL: DIQMTQSPSSLSASVGDRVTITCRASQDVSTAVAWYQQKPGKAPKLLIYSASFLYSGVPSRFSGSGSGTDFTLTISSLQPEDFATYYCQQTSTSPPTFGQGTKVEIKR", "IC50", 11],
  ["V3-13 Fab (Fab, V domains shown, soluble Fab in SPR) VH: EVQLVESGGGLVQPGGSLRLSCAASGFTISRRSIHWVRQAPGKGLEWVAWITPSDGNTDYADSVKGRFTISADTSKNTAYLQMNSLRAEDTAVYYCARRVCYSSVRGCAGAMDYWGQGTLVTVSS VL: DIQMTQSPSSLSASVGDRVTITCRASQDVSTAVAWYQQKPGKAPKLLIYGASNLYSGVPSRFSGSGSGTDFTLTISSLQPEDFATYYCQQSHASPPTFGQGTKVEIKR", "IC50", 473],
  ["V3-1 Fab (Fab, V domains shown, soluble Fab in SPR) VH: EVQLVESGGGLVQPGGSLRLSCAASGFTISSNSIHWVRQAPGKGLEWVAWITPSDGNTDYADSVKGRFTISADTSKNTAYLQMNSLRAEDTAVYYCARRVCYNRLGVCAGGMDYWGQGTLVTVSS VL: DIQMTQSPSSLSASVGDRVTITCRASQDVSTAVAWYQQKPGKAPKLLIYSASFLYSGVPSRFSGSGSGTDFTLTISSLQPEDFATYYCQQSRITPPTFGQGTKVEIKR", "IC50", 5.4]
]}

q: Please supply the value of reported IC50 for the item V3-12 Fab (Fab, V domains shown, soluble Fab in SPR) VH: EVQLVESGGGLVQPGGSLRLSCAASGFTISSNSIHWVRQAPGKGLEWVAWITPSDGNTDYADSVKGRFTISADTSKNTAYLQMNSLRAEDTAVYYCARRVCYDRARVCAGAMDYWGQGTLVTVSS VL: DIQMTQSPSSLSASVGDRVTITCRASQDVSTAVAWYQQKPGKAPKLLIYSASFLYSGVPSRFSGSGSGTDFTLTISSLQPEDFATYYCQQSYSTPPTFGQGTKVEIKR
a: 35
